Tested on: white rats with experimental diabetes (alloxan diabetes)
Assay: Anti-diabetic, hypolipidemic and hypocholesteremic activity, alloxan diabetes model in rats (Example 2)
Assay type: in vivo, rat
Conditions: in 10 days; compounds 50 mg/kg, metmorphin 200 mg/kg daily
Where a name gives a salt, the structure may show the parent alone.
reportedMetric: Body mass (g)
Express it in g; write the number only.

See these solved cases before continuing.
CCOC(=O)c1c(CN2CCCC2)n(C)c2cc(-c3cccnc3)c3c(c12)CN(C)CO3 [MC-213, trihydrochloride] = 185
CCOC(=O)c1c(CSc2ccc3ccccc3c2)n(C)c2cc(Br)c(O)c(CN(C)C)c12 [MC-217, hydrochloride] = 190
CCOC(=O)c1c(CSc2ccccc2)n(C)c2cc(Br)c(O)c(CN(C)C)c12 [MC-200, hydrochloride] = 180
CN(C)C(=N)N=C(N)N [Metmorphin, reference compound] = 185

Now look at this entry.
Need Body mass, item `CCOC(=O)c1c(CN2CCCC2)n(C)c2cc(-c3cccnc3)c(O)cc12`
186
